Each recorded value in this set is attributed to patent US9624288B2.

Target: EG3 (SEQ ID NO: 12) ELIC-GlyR (EG) Cl- channel (Dickeya chrysanthemi, UniProt P0C7B7, INS163G)
Sequence (P0C7B7 other isoform, or with tags, fused parts or gaps INS163G): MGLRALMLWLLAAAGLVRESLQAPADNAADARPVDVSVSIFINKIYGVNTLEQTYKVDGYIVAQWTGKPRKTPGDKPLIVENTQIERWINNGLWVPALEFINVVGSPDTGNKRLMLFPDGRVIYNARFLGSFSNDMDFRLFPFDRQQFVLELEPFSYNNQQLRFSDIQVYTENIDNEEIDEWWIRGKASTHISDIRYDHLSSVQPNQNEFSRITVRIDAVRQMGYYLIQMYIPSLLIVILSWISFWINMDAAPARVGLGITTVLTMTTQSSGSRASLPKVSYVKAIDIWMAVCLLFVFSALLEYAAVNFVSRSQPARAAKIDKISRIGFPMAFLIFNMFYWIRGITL
Test: Two-electrode voltage clamp, amine agonist activation of the EG channel in Xenopus oocytes
readout_kind: pEC50
Lab note: report pEC50 as minus log10 of the concentration in molar units, number only.

CCCN [propylamine] :: 3.13

Let us move to another entry and its pEC50.
Asked: Could you share which pEC50 value was measured for NCCS [cysteamine] ?
Given back: 3.02
